# Tested on: Src Thr338Ile
# test-summary: Inhibition of Src gatekeeper mutant
# Type: biochemical, chicken
# conditions: Src Thr338Ile containing SH3 and SH2 domains
measurement-name: pIC50
Interpret pIC50 as the negative base-10 log of the concentration measured in mol/L.

Reported pIC50, molecule NC(=O)[C@@H]1CCNC(=O)[C@H](CCCNC(=O)c2cnccn2)NC(=O)[C@H](CC2CCCCC2)NC(=O)[C@H](C/C=C/c2ccccc2)NC(=O)/C=C\C(=O)N1 [cis-A11-B8-C10-D7] : ____
6.00

====

# system-tested: Lck (Mus musculus, UniProt P06240)
# Construct: murine Lck (residues 227-509); made in house
# Sequence (P06240 227-509): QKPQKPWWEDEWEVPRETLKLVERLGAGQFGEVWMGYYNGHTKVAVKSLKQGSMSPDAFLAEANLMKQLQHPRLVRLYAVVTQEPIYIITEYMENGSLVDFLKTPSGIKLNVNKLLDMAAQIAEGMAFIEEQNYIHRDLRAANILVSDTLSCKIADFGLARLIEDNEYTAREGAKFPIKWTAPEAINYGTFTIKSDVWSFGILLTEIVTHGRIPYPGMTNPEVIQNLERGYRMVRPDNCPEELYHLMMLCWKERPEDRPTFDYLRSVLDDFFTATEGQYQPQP
# test-summary: Continuous spectrophotometric kinase activity assay
# Type: biochemical, murine
# conditions: 5 μM ATP, 100 μM Src optimal peptide
Catalogue of IC50 values
State just the number; it will be interpreted in µM.

{"smiles-str": "NC(=O)[C@@H]1CCCNC(=O)[C@H](Cc2ccc([N+](=O)[O-])cc2)NC(=O)[C@H](Cc2ccccc2)NC(=O)[C@H](CC2CC2)NC(=O)/C=C/C(=O)N1", "IC50 (µM)": 5.2}

Kindly review the next compound as well.
Reported IC50, compound `O=C1/C=C\C(=O)N[C@@H](CC2CCCCC2)C(=O)N[C@@H](Cc2ccccc2)C(=O)N[C@@H](CCCNC(=O)c2cnccn2)C(=O)NCC[C@@H](C(=O)O)N1` : ____
4

====

# system-tested: Src kinase domain (Gallus gallus)
# Construct: chicken c-Src (residues 251-533 and residues 83-533); made in house
# test-summary: Fluorescence anisotropy binding assay
# Parameters: species or system chicken
# conditions: fluorescein-labeled macrocycle; 250 μM AMP-PNP; read-out: dissociation constant (KD)
Catalogue of pKd values
Interpret pKd as the negative base-10 log of the concentration measured in mol/L.

Reported pKd, compound NC(=O)[C@@H]1CCNC(=O)[C@H](CCCNC(=O)c2cnccn2)NC(=O)[C@H](CC2CCCCC2)NC(=O)[C@H](C/C=C/c2ccccc2)NC(=O)/C=C\C(=O)N1 [cis-A11-B8-C10-D7] : ____
4.90

Reported pKd, compound NC(=O)[C@@H]1CCNC(=O)[C@H](CCCNC(=O)c2cnccn2)NC(=O)[C@H](Cc2ccco2)NC(=O)[C@H](CC2CC2)NC(=O)/C=C\C(=O)N1 [cis-A11-B1-C5-D7] : ____
5.48

Reported pKd, compound NC(=O)[C@@H]1CCCNC(=O)[C@H](Cc2ccc([N+](=O)[O-])cc2)NC(=O)[C@H](Cc2ccco2)NC(=O)[C@H](CC2CC2)NC(=O)/C=C/C(=O)N1 [trans-A10-B1-C5-D6] : ____
5.77

====

# system-tested: Lck (Mus musculus, UniProt P06240)
# Construct: murine Lck (residues 227-509); made in house
# test-summary: Continuous spectrophotometric kinase activity assay
# Format: biochemical, murine
# conditions: 5 μM ATP, 300 μM Src optimal peptide
Catalogue of IC50 values
State just the number; it will be interpreted in µM.

{"molecule": "NC(=O)[C@@H]1CCCNC(=O)[C@H](Cc2ccc([N+](=O)[O-])cc2)NC(=O)[C@H](Cc2ccccc2)NC(=O)[C@H](CC2CC2)NC(=O)/C=C/C(=O)N1 [MC4.1]", "quantitative-readout": 5.5}

Reported IC50, molecule O=C1/C=C\C(=O)N[C@@H](CC2CCCCC2)C(=O)N[C@@H](Cc2ccccc2)C(=O)N[C@@H](CCCNC(=O)c2cnccn2)C(=O)NCC[C@@H](C(=O)O)N1 [MC1.2] : ____
1.9

====

pIC50 tested on full-length chicken c-Src (Gallus gallus, UniProt P00523): recorded values
Interpret pIC50 as the negative base-10 log of the concentration measured in mol/L.

{"smiles-str": "NC(=O)[C@@H]1CCCNC(=O)[C@H](Cc2ccc([N+](=O)[O-])cc2)NC(=O)[C@H](Cc2ccccc2)NC(=O)[C@H](CC2CC2)NC(=O)/C=C/C(=O)N1", "pIC50": 7.10}

Kindly review the next compound as well.
Quick check: pIC50 on full-length chicken c-Src (Gallus gallus, UniProt P00523), item `NC(=O)[C@@H]1CCCNC(=O)[C@H](Cc2ccc([N+](=O)[O-])cc2)NC(=O)[C@H](Cc2ccccc2)NC(=O)[C@H](CC2CCCCC2)NC(=O)/C=C/C(=O)N1` ?
8.22

====

# system-tested: RET (Homo sapiens)
# Sequence (P07949 29-1114): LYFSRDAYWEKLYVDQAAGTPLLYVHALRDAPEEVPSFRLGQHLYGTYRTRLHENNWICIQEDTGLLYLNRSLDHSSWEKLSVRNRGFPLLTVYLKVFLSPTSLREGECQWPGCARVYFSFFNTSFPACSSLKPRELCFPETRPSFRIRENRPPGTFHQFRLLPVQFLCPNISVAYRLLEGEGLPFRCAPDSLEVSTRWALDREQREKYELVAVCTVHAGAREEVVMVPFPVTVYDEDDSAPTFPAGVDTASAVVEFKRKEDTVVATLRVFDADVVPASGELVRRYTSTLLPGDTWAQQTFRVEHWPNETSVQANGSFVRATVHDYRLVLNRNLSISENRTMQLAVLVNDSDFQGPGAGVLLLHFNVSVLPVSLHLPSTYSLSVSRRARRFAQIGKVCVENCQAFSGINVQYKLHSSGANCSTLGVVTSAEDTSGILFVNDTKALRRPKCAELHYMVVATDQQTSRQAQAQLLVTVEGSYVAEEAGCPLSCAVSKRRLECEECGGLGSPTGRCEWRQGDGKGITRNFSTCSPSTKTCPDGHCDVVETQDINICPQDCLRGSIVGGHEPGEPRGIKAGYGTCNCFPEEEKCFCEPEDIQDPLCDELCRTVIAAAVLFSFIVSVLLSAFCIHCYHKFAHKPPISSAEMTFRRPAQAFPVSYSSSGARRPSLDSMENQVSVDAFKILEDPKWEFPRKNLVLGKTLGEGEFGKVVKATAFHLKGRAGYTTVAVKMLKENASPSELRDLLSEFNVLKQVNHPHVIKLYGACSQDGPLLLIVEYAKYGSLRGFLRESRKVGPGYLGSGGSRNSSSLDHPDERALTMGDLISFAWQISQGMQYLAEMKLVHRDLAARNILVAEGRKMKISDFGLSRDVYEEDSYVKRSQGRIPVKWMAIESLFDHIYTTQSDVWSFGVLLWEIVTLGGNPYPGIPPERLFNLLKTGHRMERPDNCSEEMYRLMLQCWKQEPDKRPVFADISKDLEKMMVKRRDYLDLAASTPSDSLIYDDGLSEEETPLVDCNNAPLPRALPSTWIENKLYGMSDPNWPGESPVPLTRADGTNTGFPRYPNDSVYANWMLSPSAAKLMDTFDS
measurement-name: pIC50
Interpret pIC50 as the negative base-10 log of the concentration measured in mol/L.

Quick check: pIC50 on RET (Homo sapiens), item NC(=O)[C@@H]1CCNC(=O)[C@H](CCCNC(=O)c2cnccn2)NC(=O)[C@H](Cc2ccco2)NC(=O)[C@H](CC2CC2)NC(=O)/C=C\C(=O)N1 [cis-A11-B1-C5-D7] ?
5.24

====

# system-tested: Abl (Homo sapiens)
# Construct: human c-Abl (residues 229-512); made in house
# Sequence (P00519 229-512): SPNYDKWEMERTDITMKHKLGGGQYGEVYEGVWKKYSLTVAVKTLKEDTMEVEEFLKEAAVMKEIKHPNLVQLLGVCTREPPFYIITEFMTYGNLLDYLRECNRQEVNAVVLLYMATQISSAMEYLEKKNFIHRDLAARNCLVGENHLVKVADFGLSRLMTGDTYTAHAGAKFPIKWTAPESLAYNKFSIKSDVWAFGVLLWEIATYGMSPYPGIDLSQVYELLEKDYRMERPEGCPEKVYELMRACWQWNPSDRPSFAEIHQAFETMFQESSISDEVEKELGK
# test-summary: Continuous spectrophotometric kinase activity assay
# Assay type: biochemical
# conditions: 5 μM ATP, 300 μM Src optimal peptide
pIC50: −log10 of the molar value.
Catalogue of pIC50 values

Worked cases, answers included:
{"molecule": "NC(=O)[C@@H]1CCNC(=O)[C@H](CCCNC(=O)c2cnccn2)NC(=O)[C@H](Cc2ccco2)NC(=O)[C@H](CC2CC2)NC(=O)/C=C\\C(=O)N1 [cis-A11-B1-C5-D7]", "pIC50": "< 4.00"}
{"molecule": "NC(=O)[C@@H]1CCCNC(=O)[C@H](Cc2ccc([N+](=O)[O-])cc2)NC(=O)[C@H](Cc2ccco2)NC(=O)[C@H](CC2CC2)NC(=O)/C=C/C(=O)N1 [trans-A10-B1-C5-D6]", "pIC50": "< 4.00"}
{"molecule": "NC(=O)[C@@H]1CCCNC(=O)[C@H](Cc2ccc([N+](=O)[O-])cc2)NC(=O)[C@H](Cc2ccccc2)NC(=O)[C@H](CC2CC2)NC(=O)/C=C/C(=O)N1 [MC4.1]", "pIC50": "< 4.00"}

Quick check: pIC50 on Abl (Homo sapiens), item O=C1/C=C\C(=O)N[C@@H](CC2CCCCC2)C(=O)N[C@@H](Cc2ccccc2)C(=O)N[C@@H](CCCNC(=O)c2cnccn2)C(=O)NCC[C@@H](C(=O)O)N1 [MC1.2] ?
< 4.00

====

# system-tested: Src83-533 (chicken c-Src 83-533) (Gallus gallus)
measurement-name: pIC50
Interpret pIC50 as the negative base-10 log of the concentration measured in mol/L.

Reported pIC50, compound NC(=O)[C@@H]1CCNC(=O)[C@H](CCCNC(=O)c2cnccn2)NC(=O)[C@H](CC2CCCCC2)NC(=O)[C@H](C/C=C/c2ccccc2)NC(=O)/C=C\C(=O)N1 [cis-A11-B8-C10-D7] : ____
6.41

====

# system-tested: p38α-MAPKAPK2 kinase cascade (P38α-MK2) (Homo sapiens, UniProt P49137+Q16539)
# Sequence (Q16539 whole entry): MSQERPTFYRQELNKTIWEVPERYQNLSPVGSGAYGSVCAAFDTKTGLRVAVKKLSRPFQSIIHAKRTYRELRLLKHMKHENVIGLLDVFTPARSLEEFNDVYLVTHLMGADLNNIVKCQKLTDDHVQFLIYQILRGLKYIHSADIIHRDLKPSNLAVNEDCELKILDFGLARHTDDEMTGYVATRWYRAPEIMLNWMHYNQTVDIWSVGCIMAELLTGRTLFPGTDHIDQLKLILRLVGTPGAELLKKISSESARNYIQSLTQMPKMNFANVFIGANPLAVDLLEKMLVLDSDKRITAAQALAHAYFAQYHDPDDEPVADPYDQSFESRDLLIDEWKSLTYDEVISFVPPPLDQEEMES
# Sequence (P49137 whole entry): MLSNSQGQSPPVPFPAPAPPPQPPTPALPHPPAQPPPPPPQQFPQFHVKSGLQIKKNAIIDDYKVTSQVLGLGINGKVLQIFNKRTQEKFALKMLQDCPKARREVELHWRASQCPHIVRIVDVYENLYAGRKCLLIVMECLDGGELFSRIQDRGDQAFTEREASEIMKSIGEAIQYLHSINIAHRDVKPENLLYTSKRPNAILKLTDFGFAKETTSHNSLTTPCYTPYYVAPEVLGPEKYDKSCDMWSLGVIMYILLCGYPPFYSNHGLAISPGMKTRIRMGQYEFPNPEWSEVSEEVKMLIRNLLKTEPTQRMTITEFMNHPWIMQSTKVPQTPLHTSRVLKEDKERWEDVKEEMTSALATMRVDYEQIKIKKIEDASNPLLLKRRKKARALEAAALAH
# test-summary: Z'-LYTE kinase cascade assay (Invitrogen SelectScreen)
# From the text: Macrocycles A10-B1-C11-D5 and A10-B8-C11-D5 were enriched 2- to 6-fold upon selection for binding Akt3, MAPKAPK2, Pim1, and VEGFR2 (FIG. 6). These two macrocycles are structurally similar, sharing nitrophenylalanine (A10) and cyclohexylstatine (C11) building blocks as well as the same lysine scaffold (D5), and differ only at the B building block with either furylalanine (B1) or cyclohexylalanine (B8) (FIG. 6). […]
*1 amine or outer side, *2 acyl side, *3 side chain or, on linkers, in order; H or OH if unused. Where a SMILES comes first, the peptide text is derived from it. Bridges are numbered along the chain shown (N, C = ends). [ ]: non-standard residue; d: D form. The star is where a group is joined. Ala(E-styryl) = N[C@@H](C/C=C/c1ccccc1)C(=O)O; dBpa = N[C@H](Cc1ccc(C(=O)c2ccccc2)cc1)C(=O)O; Maleoyl = O=C(/C=C\C(=O)[*:2])[*:1]; NH(CH2CH2O)2CH2CH2NH2 = NCCOCCOCCN*; Cha = N[C@@H](CC1CCCCC1)C(=O)O; Dab = NCC[C@H](N)C(=O)O; Dap = NC[C@H](N)C(=O)O
measurement-name: pIC50
Interpret pIC50 as the negative base-10 log of the concentration measured in mol/L.

Reported pIC50, compound NCCOCCOCCNC(=O)[C@@H]1CCCCNC(=O)[C@H](Cc2ccc([N+](=O)[O-])cc2)NC(=O)[C@H](CC2CCCCC2)NC(=O)C[C@H](O)[C@H](CC2CCCCC2)NC(=O)/C=C\C(=O)N1 [cis-A10-B8-C11-D5] : ____
5.47

Reported pIC50, compound NCCOCCOCCNC(=O)[C@@H]1CCNC(=O)/C=C\C(=O)N[C@@H](C/C=C/c2ccccc2)C(=O)N[C@@H](CC2CCCCC2)C(=O)N[C@H](Cc2ccc(C(=O)c3ccccc3)cc2)C(=O)N1 [cis-A12-B8-C10-D3] ([Ala(E-styryl)][Cha][dBpa][Dab]-{NH(CH2CH2O)2CH2CH2NH2}; linker N-4 via Maleoyl) : ____
4.92

Reported pIC50, compound NCCOCCOCCNC(=O)[C@@H]1CNC(=O)[C@@H](Cc2ccc(C(=O)c3ccccc3)cc2)NC(=O)[C@H](CC2CCCCC2)NC(=O)[C@H](C/C=C/c2ccccc2)NC(=O)/C=C\C(=O)N1 [cis-A12-B8-C10-D8] : ____
4.85

Reported pIC50, compound NCCOCCOCCNC(=O)[C@@H]1CNC(=O)/C=C\C(=O)N[C@@H](C/C=C/c2ccccc2)C(=O)N[C@@H](CC2CCCCC2)C(=O)N[C@H](Cc2ccc(C(=O)c3ccccc3)cc2)C(=O)N1 [cis-A12-B8-C10-D4] ([Ala(E-styryl)][Cha][dBpa][Dap]-{NH(CH2CH2O)2CH2CH2NH2}; linker N-4 via Maleoyl) : ____
4.70

Cited source: patent US8975232B2
